The reported measurements were obtained from a melting point compilation (Tetko et al.; mined from patent text by program, amines drawn as free bases though some values may be those of a salt).

As shown below, each of these compounds has a reported melting point value.

Reference set, count: 3
response.value for CS(=O)(=O)Nc1ccc(C#CCCN2CC=C(c3ccccc3)CC2)nc1 (field: melting point) = 138 to 139 °C

response.value for CN(C)C1CCCN(C(=O)c2ccc([N+](=O)[O-])cc2)c2ccccc21 (stereo unspecified) (field: melting point) = 139 to 142 °C

response.value for Cc1nn(Cc2ccc(Cl)cc2)c(C)c1CC(=O)O (field: melting point) = 173 to 174 °C

Next:
response.value for CCC(C)(C)N=NC(C)(C#N)CCC(=O)O (stereo unspecified) (field: melting point) = 60 to 62 °C

response.value for CCOC(=O)COCc1nnc(S)s1 (field: melting point) = 80 to 82 °C

response.value for CN(C)Cc1coc(-c2cccc(C3=Nc4ccc(-n5cccc5)cc4NC(=O)C3)c2)n1 (field: melting point) = 172 to 175 °C

response.value for COC(=O)C1=C(C)NC(C)=C(C(=O)OC(C)(C)C)C1c1cccc(N)c1 (stereo unspecified) (field: melting point) = 85 to 90 °C

response.value for O=C(OC(c1ccc(Cl)c2nc3n(c12)CCCN3c1ccc(Cl)cc1Cl)C1CC1)C1CC1 (stereo unspecified) (field: melting point) = 168 to 170 °C
